Provide the reported z-score of each item.
- Test protocol: budding yeast growth modifiers under rapamycin – strain BY4716, OD600, 96 h, primary screen (AID 1091); also: test concentration not given here
- Test context: S. cerevisiae BY4716 + rapamycin, higher = more signal, called active from +8 up or from −8 down
Please give the numeric answer without any surrounding text.

Lookup: Value lookup for z-score; key = `COCCOC(=O)N1C(=O)[C@@]2(c3cc(C#Cc4ccc(OC)cc4)ccc31)[C@H](C(=O)N1CCc3cc(OC)c(OC)cc3C1)[C@H]1C(=O)O[C@H](c3ccccc3)[C@H](c3ccccc3)N1[C@@H]2c1ccc(O)cc1`
Found: 2.29

Lookup: Entry `O=C1O[C@H](c2ccccc2)[C@H](c2ccccc2)N2[C@H]1[C@@H](C(=O)N1CCN(c3ncccn3)CC1)[C@]1(C(=O)Nc3ccc(C#CCCO)cc31)[C@H]2c1ccccc1OCCO` please
Found: 3.87

Lookup: Ok, now `COC(=O)[C@@]1(Cc2ccccc2)[C@H]2c3cc(C(=O)N4CCCC4)n(Cc4ccccc4)c3C[C@H]2CN1C(=O)c1ccccc1`
Found: 1.55

Lookup: Then COc1cc(C(O)C2C=CC3C(=O)N(C)C(=O)C3N2NC(=O)OC(C)(C)C)cc(OC)c1OC (centres undefined) ?
Found: 1.15

Lookup: What about `COCCOC(=O)N1C(=O)[C@@]2(c3cc(C#CCCO)ccc31)[C@H](C(=O)NC[C@H](O)c1ccccc1)[C@H]1C(=O)O[C@H](c3ccccc3)[C@H](c3ccccc3)N1[C@@H]2c1ccccc1OCCO` ?
Found: 2.4

Lookup: Note, next up: C[C@H]1NC(=O)C([C@@H](C)OCc2ccccc2)NC(=O)[C@@]23C(=O)N[C@@H](Cc4ccccc4)C2[C@H](C)[C@@]2(C)O[C@H]2C3/C=C/CC/C=C/CNC1=O (some centres undefined)
Found: 0.261

Lookup: Would you mind doing `C=CCOC(=O)[C@@H]1[C@H]2C(=O)O[C@H](c3ccccc3)[C@H](c3ccccc3)N2[C@H](c2ccc(OCCOC(=O)[C@@H]3C[C@@H]4C(=O)N[C@@H](CCCCNC(C)=O)C(=O)N4[C@@H]3c3ccc(O)cc3)cc2)[C@@]12C(=O)Nc1ccc(I)cc12` as well?
Found: 2.96

Lookup: Likewise for `COc1ccccc1CN1C(=O)c2ccccc2[C@](Cc2ccccc2I)(C(=O)NCCN2CCOCC2)[C@@H]1c1ccc(CO)cc1` ?
Found: -0.168

Lookup: // next record `Cc1ccc(-c2cccc(=O)o2)cc1`
Found: 1

====

- Target under test: Dihydroorotate dehydrogenase (quinone), mitochondrial (Plasmodium falciparum (isolate 3D7))
- Test protocol: inhibition of P. falciparum DHODH – biochemical, C-terminal His tag, absorbance 600 nm, primary screen (AID 1175);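 also: recombinant parasite enzyme with a five histidine tag at its C terminus; test concentration not given here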
- Test context: PfDHODH enzyme, DCIP absorbance 600 nm; higher = more signal, called active from +8 up or from −8 down
Recorded endpoint: composite z-score
Reply briefly: the number, and no unit.

Lookup: Which composite z-score reading was recorded for the molecule CC(C)C[C@H]1NC(=O)[C@H](C)NC(=O)[C@@]23C(=O)N[C@@H](Cc4ccccc4)C2[C@H](C)[C@@]2(C)O[C@H]2C3/C=C/C/C=C\CNC1=O (stereo partly specified) ?
Found: -0.401

Lookup: Again, but for `CCOC(=O)C[C@H]1[C@H](OC(=O)Cc2ccc3c(c2)OCO3)[C@@H](NC(=O)c2ccccc2)c2cc(OCCCO)ccc2N1C(=O)c1ccc2ccccc2n1`
Found: -1.03

Lookup: Please do the same for `COCCCNC(=O)[C@@]1(Cc2ccccc2I)c2ccccc2C(=O)N(Cc2ccccc2Cl)[C@H]1c1ccc(CO)cc1` as well.
Found: -0.278

Lookup: Cool, now `CC(=O)NCCCC[C@@H]1NC(=O)[C@H]2C[C@@H](C(=O)NCCCCCN)[C@@H](c3cccc(OCCO)c3)N2C1=O`
Found: -0.613

Lookup: Then `[N-]=[N+]=NCc1ccccc1C[C@]1(C(=O)NCCN2CCOCC2)N=C(c2ccc(OCCCO)cc2)O[C@H]1c1ccccc1` ?
Found: -0.603

Lookup: What would you report for O=C1c2ccccc2C(=O)C2CC([C@H]3Oc4ccccc4S(=O)(=O)N4CCC[C@@H]34)=CCC12 (stereo partly specified) ?
Found: 0.0834
